System: SK-MEL-5 melanoma
Experiment: NCI-60 one-dose screen, 48 h
Conditions: 10 µM
About 83,000 compounds went through this panel and 20% of them were active in at least one assay; those are over-represented in the sample as a whole. Calls of active or inactive are those of the source. How the source made its calls: active means growth percent below 10; inactive means the rest.
Just give me one of these, please: active, inactive

Give the logged outcome of this assay for the following compound: COc1ccc(Nc2cnc3cc(NS(=O)(=O)c4ccc(C)cc4)ccc3n2)cc1 inactive

Tell me the assay call for COc1ccc(-c2nc(-c3nc4ccc(C)cc4[nH]3)cc3c2[nH]c2ccccc23)cc1 please. inactive

Which outcome was assigned to COc1ccc(C(=O)CSc2nc(-c3cc(OC)ccc3OC)cc(-c3ccc(OC)cc3)c2C#N)cc1 in this test? inactive

Name the outcome recorded for S=C(NCc1ccccc1)NCc1ccccc1 in the assay. inactive

// outcome(item) with item = CN1C(=O)C2(Nc3cc(Cl)ccc3S2)c2cc(Cl)ccc21 (configuration not stated) inactive

Test call, this compound: COc1cc(-c2csc(NC(=O)Nc3ccc(Cl)c(C(F)(F)F)c3)n2)cc(OC)c1OC active

Returns: the outcome recorded for COc1cc(C(=O)n2nc(-c3cc(OC)c(OC)c(OC)c3)nc2N)cc(OC)c1OC in this assay. inactive

Test call for this compound, please: C1CN(CC2CCC(CN3CCOCC3)O2)CCO1 (configuration not stated) inactive

Kindly provide the recorded test outcome for the following compound: CN(C)c1nc(N)c2nccnc2n1 inactive

Could you check what this test reported for Nc1nc(-c2ccc(Cl)cc2)cc(-c2cc3ccccc3oc2=O)n1 ? inactive

// return assay outcome for OC(CCN1CCCC1)(c1ccccc1)C1CCCCC1 (configuration not stated) inactive

Which result was noted for this compound in the test: Cc1c2cnccc2c(C)c2c1oc1ccccc12 inactive

# fetch the recorded call for Cc1ccc(NCCN(C)CC(C)O)c2c(=O)c3ccccc3sc12 (configuration not stated) here inactive

Outcome? CC(=O)[C@H]1CC[C@]2(C)[C@@H]1CC[C@@H]1[C@@]3(C)CC(CCC#N)(CCC#N)C(=O)C(C)(C)[C@@H]3CC[C@]12C inactive

Given C[n+]1c2ccccc2nc2ccccc21 , state the outcome it received in this test. active

Field: outcome | Entry: COc1cccc(CNc2cccc3cn[nH]c23)c1O inactive

Hi, sorry to bother you, what did the test record for Nc1nc(Cl)nc2c1ncn2C1O[C@H](CO)[C@@H](O)[C@@H]1F (some centres not stated) ? inactive

// param item: O=C(CCCSc1nc(-c2ccc(Cl)cc2)cc(-c2ccc(Cl)cc2)n1)NO ; yields the recorded call active

Status in this test for Cc1cc(=O)n2nnc3cc(Cl)c(Cl)cc3n12 ? inactive

Outcome? COc1cc(C)ccc1Oc1nc(Nc2ccc(N3CCOCC3)cc2)ncc1NC(=O)Nc1cc(C(F)(F)F)cc(C(F)(F)F)c1 inactive

Record lookup: outcome of this test for CN1CCN(CCCn2c(=O)c3sc4ncccc4c3n3nnc(-c4ccccc4)c23)CC1 ? active

Per the records of this test, what outcome belongs to O=[N+]([O-])c1ccc(/C(=C/c2ccccc2)[n+]2ccccc2)cc1 ? inactive
